- target under test: PTP1B (Homo sapiens)
- Sequence (P18031 whole entry): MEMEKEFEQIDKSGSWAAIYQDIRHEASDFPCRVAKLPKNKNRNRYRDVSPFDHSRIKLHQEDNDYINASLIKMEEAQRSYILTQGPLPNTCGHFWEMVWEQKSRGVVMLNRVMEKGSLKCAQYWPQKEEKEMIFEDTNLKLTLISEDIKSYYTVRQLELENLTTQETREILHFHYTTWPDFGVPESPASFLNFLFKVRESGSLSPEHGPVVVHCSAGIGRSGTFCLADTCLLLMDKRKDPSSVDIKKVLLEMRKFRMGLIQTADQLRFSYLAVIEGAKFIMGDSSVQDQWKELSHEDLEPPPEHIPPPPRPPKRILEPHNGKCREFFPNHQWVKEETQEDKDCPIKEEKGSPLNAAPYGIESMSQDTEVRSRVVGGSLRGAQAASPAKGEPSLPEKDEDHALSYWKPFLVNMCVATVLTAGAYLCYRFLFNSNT
- protocol text: PTP1B inhibition assay
- run parameters: PTP1B IC50, isolated compounds and positive control; tested 1 to 100 µM
measured metric: IC50 (µM)
Quick reminder: number only, in µM, skip the unit.

Data request: Lab note: need IC50 for `O=c1oc(-c2ccc(O)c(O)c2)cc2cccc(O)c12` on PTP1B (Homo sapiens), anyone have it?
Data returned: 8

* * *

- target under test: UniProt:P53341
- Sequence (P53341 whole entry): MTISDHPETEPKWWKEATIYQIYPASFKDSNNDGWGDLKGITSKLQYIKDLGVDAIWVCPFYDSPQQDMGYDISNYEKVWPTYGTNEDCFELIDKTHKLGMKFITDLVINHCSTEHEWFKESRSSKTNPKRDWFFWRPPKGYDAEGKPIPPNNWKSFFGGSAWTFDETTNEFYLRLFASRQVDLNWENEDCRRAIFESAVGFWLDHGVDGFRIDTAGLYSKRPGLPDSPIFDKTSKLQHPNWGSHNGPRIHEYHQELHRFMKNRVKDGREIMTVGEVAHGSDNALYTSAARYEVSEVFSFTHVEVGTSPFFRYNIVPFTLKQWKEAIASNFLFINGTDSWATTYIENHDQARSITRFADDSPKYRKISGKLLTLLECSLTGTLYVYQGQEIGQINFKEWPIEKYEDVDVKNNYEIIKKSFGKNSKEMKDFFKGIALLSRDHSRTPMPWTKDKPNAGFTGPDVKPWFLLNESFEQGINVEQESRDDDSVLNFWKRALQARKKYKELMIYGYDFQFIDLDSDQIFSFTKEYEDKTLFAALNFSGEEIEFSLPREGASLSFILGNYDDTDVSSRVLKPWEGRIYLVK
measured metric: IC50 (µM)
Write it as a number; the unit µM goes unstated.

Data request: Look at this compound and give its reported IC50. O=c1oc(-c2ccc(O)c(O)c2)cc2cccc(O)c12 [Compound 12, Thunberginol A]
Data returned: 3.4
